Ref: paper PMC7139504

# subject_of_test: HO-1 (Rattus norvegicus)
# Construct: selected in order to use the most native (i.e., closest to in vivo) forms of HO-1 and HO-2; from tissue; host or cells: spleen microsomal fraction of male Sprague-Dawley rats
# Sequence (P06762 whole entry): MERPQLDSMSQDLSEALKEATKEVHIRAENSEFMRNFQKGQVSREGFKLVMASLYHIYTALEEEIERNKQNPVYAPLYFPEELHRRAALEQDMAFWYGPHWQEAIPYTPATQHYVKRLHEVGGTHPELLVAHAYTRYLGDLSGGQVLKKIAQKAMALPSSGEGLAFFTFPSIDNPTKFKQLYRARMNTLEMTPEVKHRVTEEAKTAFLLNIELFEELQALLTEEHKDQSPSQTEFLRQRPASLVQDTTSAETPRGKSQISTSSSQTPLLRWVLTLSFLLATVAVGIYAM
# assay_summary: HO-1 inhibition, bilirubin formation in rat spleen microsomal fraction
# Assay type: biochemical
# condition_set: experimental values repeated in the docking table; read-out: IC50 exp. (μM) HO-1
quantity_name: IC50 (µM)

I: Clc1ccc(Cl)c(COC(Cn2ccnc2)c2cccc(Br)c2)c1 (centres unmarked)
II: OC(Cn1ccnc1)c1ccc(OCc2cccc(Br)c2)cc1 (centres unmarked)
Query :: Return label of the item with the larger IC50. Candidates: I , II . Answer format: the label of the selected item.
Result :: I

a: c1ccc(-c2cccc(CCn3ccnc3)c2)cc1
b: Brc1cccc(CCn2ccnc2)c1
Query :: // select label with min value of measured IC50 from [ a , b ] Answer format: the label of the selected item.
Result :: a

A: OC(Cn1ccnc1)c1cccc(OCc2ccccc2Br)c1 (centres unmarked)
B: OC(Cn1ccnc1)c1ccc(OCc2ccccc2Br)cc1 (centres unmarked)
Query :: Looking at recorded values for IC50, does A or B come in lower? API: response body contains the label of the selected item.
Result :: B
(B: 9 µM, A: 44 µM)

I: Brc1ccc(COc2ccc(CCn3ccnc3)cc2)cc1
II: OC(Cn1ccnc1)c1cccc(OCc2ccc(Br)cc2)c1 (centres unmarked)
Query :: Decide: I or II , by lowest recorded IC50. Reply with the label of the item you choose.
Result :: II
(II: 0.9 µM, I: 62.9 µM)
